PROTOCOL: in vitro
For each entry below, report its CC50 value.

COMPOUND | ASSAY_VALUE
Cc1ccc(C(=O)Nc2ccc(S(=O)(=O)O)c3cc(S(=O)(=O)O)cc(S(=O)(=O)O)c23)cc1NC(=O)c1cccc(NC(=O)Nc2cccc(C(=O)Nc3cc(C(=O)Nc4ccc(S(=O)(=O)O)c5cc(S(=O)(=O)O)cc(S(=O)(=O)O)c45)ccc3C)c2)c1 [Suramin, reference compound] | > 100 µg/mL

What value of CC50 has been recorded for this entry: Cc1cn([C@H]2C[C@H](N=[N+]=[N-])[C@@H](CO)O2)c(=O)[nH]c1=O [3′-azido-2′,3′-dideoxythymidine (AZT), 3′-azido-2′,3′-dideoxythymidine, reference compound]
> 100 µg/mL

* * *

PROTOCOL: Cytotoxicity (Tables 4, 6, 8)
For each entry below, report its CC50 value.

These solved cases illustrate the format of a correct answer.
MOLECULE | CC50
Nc1ccn([C@@H]2CS[C@H](CO)O2)c(=O)n1 [2′,3′-dideoxy-3′-thiacytidine, reference compound] | > 100 µg/mL
CCCCCCCCCCCCCC(=O)NCCCCC(NC(=O)CCNC(=O)C(CCC(=O)OC[C@H]1O[C@@H](n2cc(C)c(=O)[nH]c2=O)C[C@@H]1F)NC(C)=O)C(=O)O (some centres unmarked) | > 100 µg/mL
CCCCCCCCCCCCCC(=O)NCCCC[C@H](NC(=O)CCNC(=O)[C@H](CCC(=O)OC[C@H]1O[C@@H](n2cc(C)c(=O)[nH]c2=O)C[C@@H]1F)NC(=O)CCCCCCCCCCCCC)C(=O)O | > 100 µg/mL

Consider the following items and state reported CC50 for each.
1. CCCCCCCCCCCCCC(=O)OCC(NC(C)=O)C(=O)NCCC(=O)NC(CCC(=O)OC[C@H]1O[C@@H](n2cc(C)c(=O)[nH]c2=O)C[C@@H]1N=[N+]=[N-])C(=O)NCC(=O)O (some centres unmarked)
2. CCCCCCCCCCCCCC(=O)OCC(NC(C)=O)C(=O)NCCC(=O)NC(CCC(=O)OC[C@H]1O[C@@H](n2cc(C)c(=O)[nH]c2=O)C[C@@H]1F)C(=O)NCC(=O)O (some centres unmarked)

1. > 100 µg/mL
2. > 100 µg/mL

* * *

System: HIV-1 IIIB (cell-free virus)
PROTOCOL: microbe, parasite or virus in culture
Assay type: cell-based
STATED_CONDITIONS: Table 8; 2 h incubation, wash, 48 h culture
PARAMETER_MEASURED: EC50 Cell-free HIV-1 (IIIB) (mg/L)
One number for each entry, in mg/L.

These solved cases illustrate the format of a correct answer.
MOLECULE | EC50 Cell-free HIV-1 (IIIB) / mg/L
CCCCCCCCCCCCCC(=O)NC(CCC(=O)OC[C@H]1O[C@@H](n2cc(C)c(=O)[nH]c2=O)C[C@@H]1F)C(=O)OC[C@H]1O[C@@H](n2cc(C)c(=O)[nH]c2=O)C[C@@H]1N=[N+]=[N-] (stereo partly drawn) | 2.0
CC(=O)NC(CCC(=O)OC[C@H]1O[C@@H](n2cc(C)c(=O)[nH]c2=O)C[C@@H]1N=[N+]=[N-])C(=O)OC[C@@H]1O[C@H](n2ccc(N)nc2=O)CS1 (stereo partly drawn) | 7.8
Cc1cn([C@H]2C[C@H](N=[N+]=[N-])[C@@H](COC(=O)CCC(=O)OC[C@H]3O[C@@H](n4cc(C)c(=O)[nH]c4=O)C[C@@H]3N=[N+]=[N-])O2)c(=O)[nH]c1=O [KPH-913, AZT-succinate-AZT] | 8.6
CC(=O)NC(CCC(=O)OC[C@H]1O[C@@H](n2cc(C)c(=O)[nH]c2=O)C[C@@H]1F)C(=O)OC[C@H]1O[C@@H](n2cc(C)c(=O)[nH]c2=O)C[C@@H]1N=[N+]=[N-] (stereo partly drawn) | 9.0
Cc1cn([C@H]2C[C@H](F)[C@@H](CO)O2)c(=O)[nH]c1=O [3′-fluoro-2′,3′-deoxythymidine (FLT), 3′-fluoro-2′,3′-deoxythymidine, reference compound] | 0.2

Consider the following items and state reported EC50 Cell-free HIV-1 (IIIB) for each.
1. Cc1cn([C@H]2C[C@H](F)[C@@H](COC(=O)CCC(=O)OC[C@H]3O[C@@H](n4cc(C)c(=O)[nH]c4=O)C[C@@H]3F)O2)c(=O)[nH]c1=O [KPH-912, FLT-succinate-FLT]
2. CCCCCCCCCCCCCC(=O)NCCCCC(NC(=O)CCNC(=O)C(CCC(=O)OC[C@H]1O[C@@H](n2cc(C)c(=O)[nH]c2=O)C[C@@H]1F)NC(C)=O)C(=O)O (stereo partly drawn)
3. Cc1cn([C@H]2C[C@H](N=[N+]=[N-])[C@@H](COC(=O)CCC(NC(=O)CCC(=O)OC[C@H]3O[C@@H](n4cc(C)c(=O)[nH]c4=O)C[C@@H]3F)C(=O)OC[C@@H]3O[C@H](n4ccc(N)nc4=O)CS3)O2)c(=O)[nH]c1=O (stereo partly drawn) [KPH-914, FLT-Succinate-AZT(glutamyl)-3TC]
4. CCCCCCCCCCCCCC(=O)OCC(NC(C)=O)C(=O)NCCC(=O)NC(CCC(=O)OC[C@H]1O[C@@H](n2cc(C)c(=O)[nH]c2=O)C[C@@H]1F)C(=O)NCC(=O)O (stereo partly drawn)

[2.1, 8.7, 0.9, 9.3]
